# method-notes: Unbound fraction in mouse plasma at 1 uM
# Format: ADME, cell-free

[
  {
    "compound": "C[C@H]1CCN1c1nc(-c2cnn(CC(=O)N3CCNCC3)c2)cc(C(F)(F)F)n1 [LY-3522348]",
    "fraction unbound at 1 µM": 0.15
  }
]

* * *

# method-notes: Tmax in dog at 2 mg/kg, po
# Type: ADME, organism-based, Canis lupus familiaris
# cond: in vivo

[
  {
    "smiles-code": "C[C@H]1CCN1c1nc(-c2cnn(CC(=O)N3CCNCC3)c2)cc(C(F)(F)F)n1",
    "Tmax [h]": 1.7
  }
]

* * *

Overview of reported clearance across a group of compounds:
# method-notes: Clearance in dog at 1 mg/kg, iv
# Type: ADME, organism-based, Canis lupus familiaris
# cond: in vivo

[
  {
    "smiles-code": "C[C@H]1CCN1c1nc(-c2cnn(CC(=O)NCCO)c2)cc(C(F)(F)F)c1C#N",
    "uom": "mL/min/kg",
    "clearance": 5
  },
  {
    "smiles-code": "C[C@H]1CCN1c1nc(-c2cnn(CC(=O)N3C[C@H](O)[C@@H](O)C3)c2)cc(C(F)(F)F)c1C#N",
    "uom": "mL/min/kg",
    "clearance": 16
  },
  {
    "smiles-code": "OC[C@H]1CCN1c1nc(-c2cnn(C3CCNCC3)c2)cc(C(F)(F)F)n1",
    "uom": "mL/min/kg",
    "clearance": 23
  },
  {
    "smiles-code": "OC[C@H]1CCN1c1nc(-c2cnn(C3CNC3)c2)cc(C(F)(F)F)n1",
    "uom": "mL/min/kg",
    "clearance": 37
  },
  {
    "smiles-code": "C[C@H]1CCN1c1nc(-c2cnn(CC(=O)N3CCNCC3)c2)cc(C(F)(F)F)n1",
    "uom": "mL/min/kg",
    "clearance": 3
  }
]

* * *

# method-notes: Inhibition of mouse KHK-C
pIC50: −log10 of the molar value.

[
  {
    "smiles-code": "C[C@H]1CCN1c1nc(-c2cn[nH]c2)cc(C(F)(F)F)c1C#N",
    "pIC50": 7.72
  },
  {
    "smiles-code": "C[C@H]1CCN1c1nc(-c2cnn(C3CNC3)c2)cc(C(F)(F)F)n1",
    "pIC50": 8.52
  },
  {
    "smiles-code": "C[C@H]1CCN1c1nc(-c2cnn(CC(=O)NCCO)c2)cc(C(F)(F)F)c1C#N",
    "pIC50": 7.55
  },
  {
    "smiles-code": "C[C@H]1CCN1c1nc(-c2cnn(C3CCN(C)CC3)c2)cc(C(F)(F)F)c1C#N",
    "pIC50": 7.85
  },
  {
    "smiles-code": "CC(=O)N1CCC(n2cc(-c3cc(C(F)(F)F)c(C#N)c(N4CC[C@@H]4C)n3)cn2)CC1",
    "pIC50": 7.35
  }
]

* * *

# method-notes: Cmax in rat at 2 mg/kg, po measured after 12 hrs
# Type: ADME, organism-based
# Parameters: time 12 hrs, dose 2 mg/kg, route po
# cond: in vivo
measured-endpoint: Cmax

[
  {
    "smiles-code": "C[C@H]1CCN1c1nc(-c2cnn(CC(=O)N3CCNCC3)c2)cc(C(F)(F)F)n1",
    "reported-result": "717 nM"
  }
]

* * *

# method-notes: Metabolic stability in dog liver microsomes assessed as compound degradation measured after 30 mins
# Type: ADME, Canis lupus familiaris, Microsome
# cond: read-out: Drug degradation
Overview of reported metabolised at 0.5 h across a group of molecules:
measured-endpoint: metabolised at 0.5 h (%)

[
  {
    "smiles-code": "C[C@H]1CCN1c1nc(-c2cnn(C3CCNCC3)c2)cc(C(F)(F)F)c1C#N",
    "reported-result": 11
  },
  {
    "smiles-code": "C[C@H]1CCN1c1nc(-c2cnn(C3CCN(C)CC3)c2)cc(C(F)(F)F)c1C#N",
    "reported-result": 36
  },
  {
    "smiles-code": "C[C@H]1CCN1c1nc(-c2cnn(CC(=O)N3C[C@@H](O)[C@H](O)C3)c2)cc(C(F)(F)F)c1C#N",
    "reported-result": 2
  },
  {
    "smiles-code": "C[C@H]1CCN1c1nc(-c2cn[nH]c2)cc(C(F)(F)F)c1C#N",
    "reported-result": 98
  },
  {
    "smiles-code": "C[C@H]1CCN1c1nc(-c2cnn(C3CCOCC3)c2)cc(C(F)(F)F)c1C#N",
    "reported-result": 98
  },
  {
    "smiles-code": "C[C@H]1CCN1c1nc(-c2cnn(C3CN(C)C3)c2)cc(C(F)(F)F)n1",
    "reported-result": 100
  },
  {
    "smiles-code": "C[C@H]1CCN1c1nc(-c2cnn(CCO)c2)cc(C(F)(F)F)c1C#N",
    "reported-result": 95
  },
  {
    "smiles-code": "C[C@H]1CCN1c1nc(-c2cnn(C3CCN(CCO)CC3)c2)cc(C(F)(F)F)c1C#N",
    "reported-result": 57
  },
  {
    "smiles-code": "C[C@H]1CCN1c1nc(-c2cnn(C3CNC3)c2)cc(C(F)(F)F)c1C#N",
    "reported-result": 27
  },
  {
    "smiles-code": "C[C@H]1CCN1c1nc(-c2cnn(C3CCNCC3)c2)cc(C(F)(F)F)n1",
    "reported-result": 15
  },
  {
    "smiles-code": "OC[C@H]1CCN1c1nc(-c2cnn(C3CNC3)c2)cc(C(F)(F)F)n1",
    "reported-result": 0
  },
  {
    "smiles-code": "CC(=O)N1CCC(n2cc(-c3cc(C(F)(F)F)c(C#N)c(N4CC[C@@H]4C)n3)cn2)CC1",
    "reported-result": 32
  },
  {
    "smiles-code": "C[C@H]1CCN1c1nc(-c2cnn(CC(=O)NCCO)c2)cc(C(F)(F)F)c1C#N",
    "reported-result": 7
  },
  {
    "smiles-code": "C[C@H]1CCN1c1nc(-c2cnn(CC(=O)N3CCN(C)CC3)c2)cc(C(F)(F)F)c1C#N",
    "reported-result": 95
  },
  {
    "smiles-code": "C[C@H]1CCN1c1nc(-c2cnn(CC(=O)N(CCO)CCO)c2)cc(C(F)(F)F)c1C#N",
    "reported-result": 16
  },
  {
    "smiles-code": "C[C@H]1CCN1c1nc(-c2cnn(C3CNC3)c2)cc(C(F)(F)F)n1",
    "reported-result": 20
  },
  {
    "smiles-code": "C[C@H]1CCN1c1nc(-c2cnn(CCN(C)C)c2)cc(C(F)(F)F)c1C#N",
    "reported-result": 100
  },
  {
    "smiles-code": "C[C@H]1CCN1c1nc(-c2cnn(C3CCN(C(=O)CN)CC3)c2)cc(C(F)(F)F)c1C#N",
    "reported-result": 0
  },
  {
    "smiles-code": "OC[C@H]1CCN1c1nc(-c2cnn(C3CCNCC3)c2)cc(C(F)(F)F)n1",
    "reported-result": 7
  },
  {
    "smiles-code": "C[C@H]1CCN1c1nc(-c2cnn(CC(=O)N3C[C@H](O)[C@@H](O)C3)c2)cc(C(F)(F)F)c1C#N",
    "reported-result": 9
  },
  {
    "smiles-code": "C[C@H]1CCN1c1nc(-c2cnn(CC(=O)N3CCNCC3)c2)cc(C(F)(F)F)n1",
    "reported-result": 28
  }
]

* * *

# method-notes: Permeability in MDCK cells assessed as drug transport measured over 1 hr in presence of P-gp
# Type: ADME, cell-based, Canis lupus familiaris
# cond: dog
Label scheme for Drug transport: lower than 2% is NO, 2% and above is YES.

[
  {
    "smiles-code": "C[C@H]1CCN1c1nc(-c2cnn(CC(=O)NCCO)c2)cc(C(F)(F)F)c1C#N",
    "assigned-category": "YES"
  },
  {
    "smiles-code": "C[C@H]1CCN1c1nc(-c2cn[nH]c2)cc(C(F)(F)F)c1C#N",
    "assigned-category": "YES"
  },
  {
    "smiles-code": "C[C@H]1CCN1c1nc(-c2cnn(C3CCNCC3)c2)cc(C(F)(F)F)c1C#N",
    "assigned-category": "YES"
  },
  {
    "smiles-code": "OC[C@H]1CCN1c1nc(-c2cnn(C3CNC3)c2)cc(C(F)(F)F)n1",
    "assigned-category": "YES"
  },
  {
    "smiles-code": "C[C@H]1CCN1c1nc(-c2cnn(CC(=O)N3CCNCC3)c2)cc(C(F)(F)F)n1",
    "assigned-category": "YES"
  },
  {
    "smiles-code": "C[C@H]1CCN1c1nc(-c2cnn(C3CNC3)c2)cc(C(F)(F)F)n1",
    "assigned-category": "YES"
  },
  {
    "smiles-code": "C[C@H]1CCN1c1nc(-c2cnn(C3CN(C)C3)c2)cc(C(F)(F)F)n1",
    "assigned-category": "YES"
  },
  {
    "smiles-code": "C[C@H]1CCN1c1nc(-c2cnn(CC(=O)N3C[C@@H](O)[C@H](O)C3)c2)cc(C(F)(F)F)c1C#N",
    "assigned-category": "NO"
  },
  {
    "smiles-code": "OC[C@H]1CCN1c1nc(-c2cnn(C3CCNCC3)c2)cc(C(F)(F)F)n1",
    "assigned-category": "YES"
  },
  {
    "smiles-code": "C[C@H]1CCN1c1nc(-c2cnn(CC(=O)N3C[C@H](O)[C@@H](O)C3)c2)cc(C(F)(F)F)c1C#N",
    "assigned-category": "NO"
  }
]

Provenance of the data: ChEMBL document CHEMBL5375962
